Each entry below carries its recorded IC50.
# TARGET_OR_SYSTEM: T1, IscR-C92A/C98A/C104A (clusterless) (Escherichia coli, UniProt P0AGK8 1-162, C92A;C98A;C104A)
# T1 sequence: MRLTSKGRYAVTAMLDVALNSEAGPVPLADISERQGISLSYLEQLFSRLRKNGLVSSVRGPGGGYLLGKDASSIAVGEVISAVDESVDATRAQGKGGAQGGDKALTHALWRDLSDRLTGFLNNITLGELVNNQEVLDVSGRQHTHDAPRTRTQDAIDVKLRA
# ASSAY_OVERVIEW: competition

{"BINDER": "hya -40 (dsDNA) DNA 1: ATAAATCCACACAGTTTCTATTGTTTTGTG DNA 2: CACAAAACAATAGAAACTGTGTGGATTTAT", "SCALE_UNIT": "µM", "IC50": 0.039}
{"BINDER": "hya -48(C to T) (dsDNA) DNA 1: ATAAATCCATACAGTTTGTATTGTTTTGTG DNA 2: CACAAAACAATACAAACTGTATGGATTTAT", "SCALE_UNIT": "µM", "IC50": 0.048}
{"BINDER": "hya -55 (A to C) (dsDNA) DNA 1: ATCAATCCACACAGTTTGTATTGTTTTGTG DNA 2: CACAAAACAATACAAACTGTGTGGATTGAT", "SCALE_UNIT": "µM", "IC50": 0.394}
{"BINDER": "hya -41 (dsDNA) DNA 1: ATAAATCCACACAGTTAGTATTGTTTTGTG DNA 2: CACAAAACAATACTAACTGTGTGGATTTAT", "SCALE_UNIT": "µM", "IC50": 0.034}
{"BINDER": "hya -51 (dsDNA) DNA 1: ATAAATGCACACAGTTTGTATTGTTTTGTG DNA 2: CACAAAACAATACAAACTGTGTGCATTTAT", "SCALE_UNIT": "µM", "IC50": 0.4}

Numbers sourced from paper PMC2709974.
